Where do the numbers come from? From patent US7482365B2.

Each record here notes measured melting point.

Here is how some molecules turned out for melting point.
INSERT INTO measurements (smiles_data, result_value) VALUES
  ('Cc1cc(F)ccc1[C@H]1C[C@H](NCC(N)=O)CCN1C(=O)N(C)Cc1cc(C(F)(F)F)cc(C(F)(F)F)c1.Cl', '130 to 131 °C'),
  ('Cc1cc(F)ccc1[C@H]1C[C@@H](NCC(N)=O)CCN1C(=O)N(C)Cc1cc(C(F)(F)F)cc(C(F)(F)F)c1.Cl', '100 to 101 °C'),
  ('Cc1cc(F)ccc1[C@H]1C[C@H](N(C)C)CCN1C(=O)N(C)Cc1cc(C(F)(F)F)cc(C(F)(F)F)c1.Cl', '180 to 183 °C'),
  ('Cc1cc(F)ccc1[C@H]1C[C@@H](N(C)C)CCN1C(=O)N(C)Cc1cc(C(F)(F)F)cc(C(F)(F)F)c1.Cl', '147 to 150 °C');

Ask: Read the entry "Cc1cc(F)ccc1[C@H]1C[C@H](NCCF)CCN1C(=O)N(C)Cc1cc(C(F)(F)F)cc(C(F)(F)F)c1.Cl" and write its reported melting point.
Result: 145 to 146 °C
